Molecular target: M4 muscarinic receptor (Homo sapiens, UniProt P08173)
Construct: expressed in transfected cells; host or cells: CHO (M4-CHO)
Sequence (P08173 1-479): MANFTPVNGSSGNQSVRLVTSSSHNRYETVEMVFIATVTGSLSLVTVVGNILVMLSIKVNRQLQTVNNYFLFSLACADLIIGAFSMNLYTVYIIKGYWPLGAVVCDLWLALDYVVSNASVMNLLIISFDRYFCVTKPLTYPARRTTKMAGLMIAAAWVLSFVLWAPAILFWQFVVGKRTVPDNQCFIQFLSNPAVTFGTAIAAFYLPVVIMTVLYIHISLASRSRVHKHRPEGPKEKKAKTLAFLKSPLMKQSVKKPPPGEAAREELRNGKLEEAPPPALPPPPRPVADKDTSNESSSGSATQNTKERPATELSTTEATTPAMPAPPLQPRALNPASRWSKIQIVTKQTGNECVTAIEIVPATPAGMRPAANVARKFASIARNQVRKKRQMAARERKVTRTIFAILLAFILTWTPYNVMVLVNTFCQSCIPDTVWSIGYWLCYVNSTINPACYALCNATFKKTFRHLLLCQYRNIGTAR
Test: Functional mobilization of intracellular calcium (FLIPR) in M4-CHO cells
Type: cell-based
Conditions: Table 4; 100% efficacy is the maximum response obtained with the Carbachol control
assay-metric: Emax

| compound | experimental-value |
| --- | --- |
| CN(C)C(=O)N1CC2(CCN(C3CCN(C(=O)c4ccccc4F)CC3)CC2)c2cc(F)ccc21 [compound 887] | < 25% |
| O=C1CCCN1[C@H]1CCC2(CCN(CC3CCCCC3)CC2)c2ccccc21 [compound 647] | 25 to 100% |
| CC(=O)NC1CCC2(CCN(CCC3CCOCC3)CC2)c2ccccc21 (centres unmarked) [compound 709] | < 25% |
| CC(=O)N[C@H]1CCC2(CCN(CCC3CCN(C(=O)OC(C)(C)C)CC3)CC2)c2ccccc21 [compound 575] | < 25% |
| CS(=O)(=O)N[C@H]1CCC2(CCN(C3CCCCCC3)CC2)c2ccccc21 [compound 723] | 25 to 100% |
| CCCN1CC2(CCN(C[C@@H]3C[C@H]4C=C[C@H]3C4)CC2)c2cc(F)ccc21 [compound 670] | 25 to 100% |
| CC(=O)N[C@H]1CC2(CCN(C34CCCCC3C4)CC2)c2ccccc21 (some centres unmarked) [compound 834] | 25 to 100% |
| CCOC(=O)N1CCC(N2CCC3(CC2)CC(=O)c2cc(C)ccc23)CC1 [compound 783] | 25 to 100% |

====

Target: M1 muscarinic receptor (Homo sapiens)
Construct: expressed in transfected cells; host or cells: CHO (M1-CHO)
Sequence (P11229 1-460): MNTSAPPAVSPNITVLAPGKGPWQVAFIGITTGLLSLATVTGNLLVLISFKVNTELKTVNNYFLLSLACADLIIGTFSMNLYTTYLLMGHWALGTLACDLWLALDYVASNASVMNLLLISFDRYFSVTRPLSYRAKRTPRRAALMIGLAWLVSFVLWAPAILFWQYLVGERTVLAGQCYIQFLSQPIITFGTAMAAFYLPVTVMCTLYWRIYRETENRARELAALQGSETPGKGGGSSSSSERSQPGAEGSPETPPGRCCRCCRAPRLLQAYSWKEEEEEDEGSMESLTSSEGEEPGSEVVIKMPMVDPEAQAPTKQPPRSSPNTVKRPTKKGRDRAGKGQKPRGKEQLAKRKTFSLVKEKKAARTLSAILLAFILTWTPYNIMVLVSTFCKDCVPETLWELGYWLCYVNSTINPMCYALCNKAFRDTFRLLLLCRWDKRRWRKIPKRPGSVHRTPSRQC
Assay: Functional mobilization of intracellular calcium (FLIPR) in M1-CHO cells
Assay type: cell-based
Conditions: M1-CHO cells, calcium mobilization (FLIPR); read-out: M1 Efficacy

| compound | measured-target | Emax |
| --- | --- | --- |
| Cc1cc(C(=O)N2CC3(CCN(C4CC5CCC(C4)N5C(=O)O[C@H]4CCOC4)CC3)c3cc(F)ccc32)nn1C (stereo partly shown) | M1 muscarinic receptor (Homo sapiens) | < 65% |
| CCOC(=O)N1CCC(N2CCC3(CC2)C[C@@H](NC(C)=O)c2ccccc23)CC1 | M1 muscarinic receptor (Homo sapiens) | < 65% |
| COCCOC(=O)N1CC2(CCN(C3CC4CCC(C3)N4C(=O)OC(C)C)CC2)c2cc(F)ccc21 (stereo not shown) | M1 muscarinic receptor (Homo sapiens) | < 65% |
| CC(=O)N1CC2(CCN(C3CCCN(C(=O)OC(C)C)CC3)CC2)c2cc(F)ccc21 (stereo not shown) | M1 muscarinic receptor (Homo sapiens) | < 65% |
| CCOC(=O)N1CCC(N2CCC3(CC2)CN(C(=O)c2c(F)cccc2F)c2ccc(F)cc23)CC1 | M1 muscarinic receptor (Homo sapiens) | < 65% |
| Fc1ccc2c(c1)C1(CCN(C[C@H]3C[C@H]4C=C[C@H]3C4)CC1)CO2 | M1 muscarinic receptor (Homo sapiens) | 65 to 85% |
| Cc1ccc2c(c1)C1(CCN(CC3CC4CCC3C4)CC1)CN2C(=O)OC(C)(C)C (stereo not shown) | M1 muscarinic receptor (Homo sapiens) | 65 to 85% |

====

Catalogue of molecules with associated Emax
Target: M1 muscarinic receptor (Homo sapiens, UniProt P11229)
Construct: expressed in transfected cells; host or cells: CHO (M1-CHO)
Experiment: Functional mobilization of intracellular calcium (FLIPR) in M1-CHO cells
Type: cell-based
Details: Table 4; 100% efficacy is the maximum response obtained with the Carbachol control

| molecule | Emax |
| --- | --- |
| O=C(O)C1CC2(CCN(CC3CCCC3)CC2)c2ccccc21 (stereo not drawn) | < 25% |
| CC(=O)N[C@H]1CCC2(CCN(CC3CCCCC3)CC2)c2ccccc21 | 25 to 100% |
| Cc1noc(C)c1C(=O)N1CCC(N2CCC3(CC2)CN(C(=O)N(C)C)c2ccc(F)cc23)CC1 | 25 to 100% |
| CC(=O)N[C@H]1CC2(CCN(C34CCCCC3C4)CC2)c2ccccc21 (stereo partly drawn) | 25 to 100% |
| CN(C)C(=O)N1CC2(CCN(C[C@@H]3CCN(C(=O)OCC(F)F)C3)CC2)c2cc(F)ccc21 | 25 to 100% |
| CS(=O)(=O)N[C@H]1CCC2(CCN(CC3CC4C=CC3C4)CC2)c2ccccc21 (stereo partly drawn) | 25 to 100% |
| CC(=O)N1CC2(CCN(CC3CCN(C(=O)OC4CCC4)CC3)CC2)c2cc(C)ccc21 | < 25% |
| CCC(=O)N[C@H]1CC2(CCN([C@@H]3C[C@@H]4CC[C@@H]3C4)CC2)c2ccccc21 | 25 to 100% |
| CC(=O)CN1CCC(N2CCC3(CC2)CN(C(C)=O)c2ccc(F)cc23)CC1 | 25 to 100% |
| CC(=O)N1CC2(CCN(C3CCC3)CC2)c2cc(F)ccc21 | < 25% |
| O=C1CC2(CCN(CC3CC4C=CC3C4)CC2)c2cc(Cl)ccc21 (stereo not drawn) | 25 to 100% |
| CCOC(=O)N1CCC(N2CCC3(CC2)CN(C(C)=O)c2c(-c4ccc(C(N)=O)cc4)cccc23)CC1 | 25 to 100% |
| CC(=O)N1CC2(CCN(C3CCN(c4cncc(-c5ccccc5F)n4)CC3)CC2)c2ccccc21 | 25 to 100% |
| CC(=O)N1CC2(CCN(C3CCN(C(C)C)CC3)CC2)c2cc(F)ccc21 | < 25% |
| CC(=O)NC1CCC2(CCN(C3CCCCC3)CC2)c2ccccc21 (stereo not drawn) | 25 to 100% |
| C#CCCOC(=O)N1CCC(N2CCC3(CC2)CN(C(C)=O)c2ccccc23)CC1 | 25 to 100% |
| CC(=O)NC1CCC2(CCN(CCC3CCCN(C(=O)OCC(C)C)C3)CC2)c2ccccc21 (stereo not drawn) | < 25% |
| CCOC(=O)N1CCC(N2CCC3(CC2)CN(C2CCC(=O)CC2)c2ccccc23)CC1 | > 100% |
| COCCOC(=O)N1CCC(N2CCC3(CC2)CN(C(C)=O)c2ccc(F)cc23)C1 (stereo not drawn) | < 25% |
| CCOC(=O)N1C2CCC1CC(N1CCC3(CCCc4ccccc43)CC1)C2 (stereo not drawn) | 25 to 100% |
| CC(=O)N[C@H]1CC2(CCN(Cc3ccoc3)CC2)c2ccccc21 | < 25% |
| CC(C)C(=O)N1CCC(N2CCC3(CC2)CN(C(=O)N(C)C)c2ccc(F)cc23)CC1 | 25 to 100% |
| CCOC(=O)N1CCC(N2CCC3(CC2)CN(C(C)=O)c2ccc(C(C)C)cc23)CC1 | 25 to 100% |
| CC(=O)NC1CCC2(CCN(CCC3CCCN(S(C)(=O)=O)C3)CC2)c2ccccc21 (stereo not drawn) | 25 to 100% |
| CCCN1CC2(CCN(C3CCN(C(=O)OCC)CC3)CC2)c2cc(F)ccc21 | 25 to 100% |
| CN(C)C(=O)N1CC2(CCN(C3CCN(C(=O)C4COc5ccccc5O4)CC3)CC2)c2cc(F)ccc21 (stereo not drawn) | 25 to 100% |
| CC(=O)N1CC2(CCN(C3CC4CCC(C3)N4C(=O)OCC3CC3)CC2)c2ccccc21 (stereo not drawn) | 25 to 100% |
| CC(=O)N1CC2(CCN(C3CCN(c4nn[nH]n4)CC3)CC2)c2ccccc21 | 25 to 100% |
| CCOC(=O)N1CC[C@H](CN2CCC3(CC2)CN(C(=O)N(C)C)c2ccc(F)cc23)C1 | 25 to 100% |
| CC(=O)N[C@H]1CC2(CCN([C@@H]3CC4CCC3C4)C2)c2ccc(F)cc21 (stereo partly drawn) | 25 to 100% |
| CC#CCOC(=O)N1CC[C@@H](CN2CCC3(CC2)CN(C(C)=O)c2cccc(C)c23)C1 | 25 to 100% |
| CCO/N=C1\CC2(CCN(CC3CCCCC3)CC2)c2cc(Cl)ccc21 | 25 to 100% |
| CC(=O)N1CC2(CCN(CC3=C(C)C=CCC3(C)C)CC2)c2cc(F)ccc21 | < 25% |
